Parameter: IC50. Scope: all listed entries.
tested on: human coronary artery smooth muscle cells (CASMC); experiment: Vascular Smooth Muscle Cell (SMC) Antiproliferation Assay; type: cell-based; conditions: CASMC; viable cell count (Trypan Blue) ~68 hr after compound addition; non-nitrosylated (sulfhydryl) compound; read-out: IC 50 μM, Non-nitrosylated Compound (inhibition of proliferation of vascular smooth muscle cells)
Response body: numeric value in µM, unit text excluded.

compound="CC(C)(S)CN1C(=O)C2C3C=CC(C3)C2C1=O (centres unmarked) [Example 11a]" reading_unit=µM recorded_number=80

Note: attention shifts to another entry.
**Q:** Supply reported IC50 belonging to this compound: CC(C)(S)CNC(=O)C(C)(C)CCC(=O)O [Example 27a]
**A:** 78

====

assay endpoint: melting point

molecule="O=NSC1(C2OCCO2)CCCCC1 [Example 45b]" assay_endpoint="melting point" result="37 to 39 °C"

**Q:** Supply reported melting point belonging to this molecule: CC1(C)c2ccccc2C(C)(C)C1(CC#N)SN=O [Example 4]
**A:** 67 to 69 °C

**Q:** Supply reported melting point belonging to this molecule: CC12CCC(C1)C(C)(C)C2(CCO)SN=O (stereo not drawn) [Example 7]
**A:** 81 to 85 °C

**Q:** Supply reported melting point belonging to this molecule: CC(C)(CN1C(=O)NC(=O)C1=O)SN=O [Example 21c]
**A:** 80 to 82 °C

**Q:** Supply reported melting point belonging to this molecule: COc1ccc(C(=O)OCCC2(SN=O)C3CC4CC(C3)CC2C4)cc1 (stereo not drawn) [Example 31]
**A:** 100 to 101 °C

**Q:** Supply reported melting point belonging to this molecule: O=NSC1(C2OCCCO2)CCCCC1 [Example 46b]
**A:** 34 to 36 °C

**Q:** Supply reported melting point belonging to this molecule: CC(C)(C)OC(=O)CC1(SN=O)C2CC3CC(C2)CC1C3 (stereo not drawn) [Example 29]
**A:** 85 to 87 °C

====

tested on: human coronary artery smooth muscle cells (CASMC); experiment: Vascular Smooth Muscle Cell (SMC) Antiproliferation Assay; format: cell-based; conditions: Homo sapiens; CASMC; viable cell count (Trypan Blue) ~68 hr after compound addition; nitrosylated (nitrosothiol) compound; read-out: IC 50 μM, Nitrosylated Compound (inhibition of proliferation of vascular smooth muscle cells)
Parameter: IC50. Scope: all listed entries.
Response body: numeric value in µM, unit text excluded.

compound="CC(C)(CN1C(=O)C2C3C=CC(C3)C2C1=O)SN=O (stereo not drawn) [Example 11b]" recorded_number=16

**Q:** Under human coronary artery smooth muscle cells (CASMC): report IC50 of CC(C)(CN1C(=O)NC(=O)C1=O)SN=O [Example 21c] .
**A:** 12

**Q:** Under human coronary artery smooth muscle cells (CASMC): report IC50 of CC(C)(CNC(=O)CCCC(=O)O)SN=O [Example 19b] .
**A:** 50

**Q:** Under human coronary artery smooth muscle cells (CASMC): report IC50 of CC(C)(CNC(=O)C(C)(C)CO[N+](=O)[O-])SN=O [Example 38b] .
**A:** 50

**Q:** Under human coronary artery smooth muscle cells (CASMC): report IC50 of O=NSC1(C2OCCO2)CCCCC1 [Example 45b] .
**A:** 42

**Q:** Under human coronary artery smooth muscle cells (CASMC): report IC50 of CC(C)(CNC(=O)C(C)(C)CCC(=O)O)SN=O [Example 27b] .
**A:** 34

**Q:** Under human coronary artery smooth muscle cells (CASMC): report IC50 of O=NSC1(C2OCCCO2)CCCCC1 [Example 46b] .
**A:** 47

**Q:** Under human coronary artery smooth muscle cells (CASMC): report IC50 of CC(C)(CNC(=O)NCC(C)(C)SN=O)SN=O [Example 20d] .
**A:** 28

**Q:** Under human coronary artery smooth muscle cells (CASMC): report IC50 of CC(C)(C)OC(=O)CC1(SN=O)C2CC3CC(C2)CC1C3 (stereo not drawn) [Example 29] .
**A:** 11

**Q:** Under human coronary artery smooth muscle cells (CASMC): report IC50 of NC(=O)CC1(SN=O)C2CC3CC(C2)CC1C3 (stereo not drawn) [Example 12d] .
**A:** 12

**Q:** Under human coronary artery smooth muscle cells (CASMC): report IC50 of CSc1nccc(NCC(C)(C)S)n1 [Example 18b] .
**A:** 26

Source listed as patent US20030203915A1.
